The reported measurements were obtained from paper PMC3124361.

Experiment: Rat pharmacokinetics after IV and oral administration
Format: in vivo
Conditions: male, Sprague Dawley, in vivo, iv, 2.9 mg/kg
Property Label: clearance (mL/min/kg)
Express it in mL/min/kg; write the number only.

QUERY: Consider the compound shown here: Cc1cc(Nc2cc(F)c(C(F)(F)F)c(F)c2)n2ncnc2n1 [Compound 32] What is its recorded clearance?
RESULT: 1.5

---

Biological target: PfDHODH (Plasmodium falciparum, UniProt Q08210)
Sequence (Q08210 158-569 limits assumed): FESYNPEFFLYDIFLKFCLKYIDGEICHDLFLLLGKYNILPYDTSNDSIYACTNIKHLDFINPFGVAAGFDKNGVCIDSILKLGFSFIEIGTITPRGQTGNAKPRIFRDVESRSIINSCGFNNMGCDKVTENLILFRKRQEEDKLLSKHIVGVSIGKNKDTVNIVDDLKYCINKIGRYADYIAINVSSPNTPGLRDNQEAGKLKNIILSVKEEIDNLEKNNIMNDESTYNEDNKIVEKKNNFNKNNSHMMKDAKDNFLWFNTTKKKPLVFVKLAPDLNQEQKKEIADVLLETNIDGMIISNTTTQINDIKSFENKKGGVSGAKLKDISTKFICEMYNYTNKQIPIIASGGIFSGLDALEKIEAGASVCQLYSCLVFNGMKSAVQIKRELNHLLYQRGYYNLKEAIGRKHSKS
Experiment: PfDHODH DCIP dye-based enzyme assay
Type: biochemical
Conditions: IC50 PfDHODH
pIC50: −log10 of the molar value.
Reported pIC50 values for a set of compounds

QUERY: Entry "Cc1cc(Nc2ccc(N3CCOCC3)cc2)n2ncnc2n1" has what pIC50?
RESULT: < 4.00

QUERY: Same thing, different compound: "Cc1cc(NC2CCCCCCC2)n2ncnc2n1"
RESULT: < 4.00

QUERY: Here is the next compound: "Cc1cc(Nc2ccc(NC(C)(C)C)cc2)n2ncnc2n1"
RESULT: < 4.30

QUERY: "Cc1cc(NC2CCCCCC2)n2ncnc2n1" , same question.
RESULT: < 4.00

---
QUERY: I am curious: what pIC50 value has been reported for "Cc1cc(NC2CCC2)n2ncnc2n1" ?
RESULT: < 4.00

QUERY: Another: "Cc1cc(NC2CCCC2)n2ncnc2n1"
RESULT: < 4.00

QUERY: Do the same for "Cc1cc(NCc2ccccc2)n2ncnc2n1" please
RESULT: < 4.00

QUERY: Next compound up: "CCCCCCCCc1ccc(Nc2cc(C)nc3ncnn23)cc1"
RESULT: < 4.30

QUERY: Another compound to check: "Cc1cc(Nc2ccc(S(F)(F)(F)(F)F)cc2)n2ncnc2n1"
RESULT: > 6.52

QUERY: Also "Cc1cc(Nc2cc(F)c(C(F)(F)F)c(F)c2)n2ncnc2n1" ?
RESULT: > 6.52

---

Assay: In vitro metabolism in human liver microsomes
Type: in vitro ADME
Settings: predicted hepatic extraction ratio
Listing of recorded Eh Human by entry.
A bare number is all that is needed in reply.

QUERY: Return reported Eh Human; argument: "C=Cc1ccc(Nc2cc(C)nc3ncnn23)cc1"
RESULT: 0.64

QUERY: Would you kindly repeat that for "Cc1cc(Nc2ccc3c(c2)CCC3)n2ncnc2n1" ?
RESULT: 0.81

---

microsomal CLint at 1 μM values, listed per item
Assay: In vitro metabolism in mouse liver microsomes
Format: in vitro ADME
Details: microsomes, pH 7.4

Study these solved cases before continuing.
QUERY: Fill blank: measured microsomal CLint at 1 μM of the molecule "C#Cc1ccc(Nc2cc(C)nc3ncnn23)cc1" is ____.
RESULT: > 25 µL/min/mg

QUERY: Also check "Cc1cc(NC2Cc3ccccc3C2)n2ncnc2n1"
RESULT: > 25 µL/min/mg

QUERY: Request: "Cc1cc(Nc2ccc3sccc3c2)n2ncnc2n1"
RESULT: > 30 µL/min/mg

Others:
QUERY: Recorded microsomal CLint at 1 μM of "Cc1cc(Nc2ccc3c(c2)CCCC3)n2ncnc2n1" , please.
RESULT: > 30 µL/min/mg

QUERY: Also "Cc1cc(Nc2ccc(C(C)(C)C)c(F)c2)n2ncnc2n1" ?
RESULT: > 30 µL/min/mg

---

Target: PfDHODH (Plasmodium falciparum, UniProt Q08210)
Sequence (Q08210 158-569 limits assumed): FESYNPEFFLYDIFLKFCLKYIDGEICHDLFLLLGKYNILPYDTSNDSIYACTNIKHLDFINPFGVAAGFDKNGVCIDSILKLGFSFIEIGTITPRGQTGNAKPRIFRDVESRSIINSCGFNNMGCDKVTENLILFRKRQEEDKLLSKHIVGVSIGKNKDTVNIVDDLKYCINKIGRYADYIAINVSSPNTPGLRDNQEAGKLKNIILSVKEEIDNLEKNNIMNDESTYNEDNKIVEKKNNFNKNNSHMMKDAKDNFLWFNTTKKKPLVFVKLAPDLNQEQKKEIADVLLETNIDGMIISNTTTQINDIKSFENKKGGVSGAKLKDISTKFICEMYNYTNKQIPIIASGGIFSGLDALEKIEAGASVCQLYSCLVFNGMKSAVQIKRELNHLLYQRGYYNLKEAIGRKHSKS
Experiment: PfDHODH DCIP dye-based enzyme assay
Type: biochemical
Property Label: activity against PfDHODH (in words)

QUERY: Give PfDHODH (Plasmodium falciparum, UniProt Q08210) activity against PfDHODH (in words) for "Cc1cc(NCc2ccc(C(F)(F)F)cc2)n2ncnc2n1"
RESULT: inactive

QUERY: Now try "Cc1cc(NCc2ccc(F)cc2)n2ncnc2n1" .
RESULT: inactive

QUERY: Same thing, different compound: "Cc1cc(NOc2ccccc2)n2ncnc2n1"
RESULT: inactive

---

Experiment: Non-equilibrium solubility by nephelometry, pH 6.5
Format: physicochemical
Details: phosphate buffer
Property Label: solubility

Solved cases (8 shown):
QUERY: Can you share its solubility? I mean this compound: Cc1cc(NC2Cc3ccccc3C2)n2ncnc2n1 [Compound 45]
RESULT: 188 to 376 µM

QUERY: What do we get for Cc1cc(Nc2ccc3sccc3c2)n2ncnc2n1 [Compound 36] ?
RESULT: 22 to 44 µM

QUERY: Record: Cc1cc(Nc2ccc(C(F)(F)F)cc2)n2ncnc2n1 [Compound 2]
RESULT: 21 to 43 µM

QUERY: Please do the same for C=Cc1ccc(Nc2cc(C)nc3ncnn23)cc1 [Compound 17] as well.
RESULT: 25 to 50 µM

QUERY: Let us now turn to Cc1cc(Nc2ccc3c(c2)CCCC3)n2ncnc2n1 [Compound 33]
RESULT: 89 to 179 µM

QUERY: Next compound up: Cc1cc(Nc2ccc(C(C)(C)C)cc2)n2ncnc2n1 [Compound 15]
RESULT: 11 to 22 µM

QUERY: Try this compound too: Cc1cc(Nc2ccc3ccccc3c2)n2ncnc2n1 [Compound 1]
RESULT: 45 to 90 µM

QUERY: Lookup CCCCc1ccc(Nc2cc(C)nc3ncnn23)cc1 [Compound 9]
RESULT: 11 to 22 µM

Continuing:
QUERY: Form field: reported solubility of Cc1cc(Nc2ccc3c(c2)OCO3)n2ncnc2n1 [Compound 35]
RESULT: 186 to 372 µM

QUERY: Here is the next compound: Cc1cc(Nc2ccc(C(C)C)cc2)n2ncnc2n1 [Compound 14]
RESULT: 47 to 94 µM

QUERY: Also need Cc1cc(Nc2ccc(SC(F)(F)F)cc2)n2ncnc2n1 [Compound 20] , thanks.
RESULT: 5 to 10 µM

---

Target: UniProt:P02768
Sequence (P02768 25-609): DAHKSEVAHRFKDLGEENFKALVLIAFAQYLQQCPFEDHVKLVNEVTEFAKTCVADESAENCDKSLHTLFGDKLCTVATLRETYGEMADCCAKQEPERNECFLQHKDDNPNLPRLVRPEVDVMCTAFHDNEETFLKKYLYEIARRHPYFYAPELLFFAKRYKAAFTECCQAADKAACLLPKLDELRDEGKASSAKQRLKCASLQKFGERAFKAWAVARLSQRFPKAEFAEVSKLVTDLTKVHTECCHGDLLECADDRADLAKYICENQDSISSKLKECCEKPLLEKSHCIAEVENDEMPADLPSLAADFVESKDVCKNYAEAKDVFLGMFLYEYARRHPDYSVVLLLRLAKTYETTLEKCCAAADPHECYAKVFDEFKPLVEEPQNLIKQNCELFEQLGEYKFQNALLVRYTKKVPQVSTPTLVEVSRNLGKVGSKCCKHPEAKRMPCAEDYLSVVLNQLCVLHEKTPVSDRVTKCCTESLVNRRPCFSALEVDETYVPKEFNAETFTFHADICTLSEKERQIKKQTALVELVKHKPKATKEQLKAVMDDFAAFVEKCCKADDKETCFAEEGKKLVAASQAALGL
Assay: Protein binding estimated on human albumin column
Assay type: in vitro ADME
Conditions: human albumin chromatographic method
Rule: t for Human Plasma Binding not less than 90%, f for anything less.

// below: answered molecules
QUERY: Human Plasma Binding >= 90% for "C#Cc1ccc(Nc2cc(C)nc3ncnn23)cc1" ?
RESULT: f

QUERY: Do the same for "Cc1cc(Nc2ccc(S(F)(F)(F)(F)F)cc2)n2ncnc2n1" please
RESULT: t

QUERY: For "Cc1cc(Nc2ccc(C(C)(C)C)c(F)c2)n2ncnc2n1" then?
RESULT: t

QUERY: Can you handle "CCCCc1ccc(Nc2cc(C)nc3ncnn23)cc1" next?
RESULT: t

More entries:
QUERY: Tell me whether Human Plasma Binding is at least 90% here: "Cc1cc(Nc2ccc(C(C)(C)C)cc2)n2ncnc2n1"
RESULT: t

QUERY: Can you check "C=Cc1ccc(Nc2cc(C)nc3ncnn23)cc1" next?
RESULT: f

QUERY: Again, but for "Cc1cc(Nc2cc(F)c(C(F)(F)F)c(F)c2)n2ncnc2n1"
RESULT: t

QUERY: And the next one, "Cc1cc(Nc2ccc(C3CC3)cc2)n2ncnc2n1" ?
RESULT: f

---

Experiment: In vitro metabolism in human liver microsomes
Format: in vitro ADME
Details: predicted hepatic extraction ratio
Property Label: Eh Human

In the examples that follow, each entry is paired with its recorded Eh Human.
QUERY: Look up Eh Human for this molecule: Cc1cc(NC2CCc3ccccc3C2)n2ncnc2n1 (centres unmarked)
RESULT: < 0.2

QUERY: What do we get for "CCCc1ccc(Nc2cc(C)nc3ncnn23)cc1" ?
RESULT: 0.66/ND

QUERY: // next record "Cc1cc(NC2Cc3ccccc3C2)n2ncnc2n1"
RESULT: < 0.2

QUERY: Another: "CCCCc1ccc(Nc2cc(C)nc3ncnn23)cc1"
RESULT: 0.67/ND

Now look at this one.
QUERY: Endpoint output: Eh Human of "Cc1cc(Nc2ccc(SC(F)(F)F)cc2)n2ncnc2n1" . Value?
RESULT: < 0.2
